src = patent US8178690B2

TGT: Bcl-xL (Homo sapiens)
Sequence (Q07817 whole entry): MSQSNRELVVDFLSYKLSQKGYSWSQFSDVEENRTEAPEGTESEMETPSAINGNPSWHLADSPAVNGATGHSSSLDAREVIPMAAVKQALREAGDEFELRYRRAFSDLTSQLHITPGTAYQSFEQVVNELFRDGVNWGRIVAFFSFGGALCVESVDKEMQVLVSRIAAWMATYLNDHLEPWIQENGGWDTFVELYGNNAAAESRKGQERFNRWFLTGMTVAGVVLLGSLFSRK
EXPERIMENT_SUMMARY: Bcl-xL binding affinity analysis (fluorescence polarization binding assay)
STUDY_CONDITIONS: read-out: BcI-XI (Ki, Bcl-xL binding affinity)
pKi: −log10 of the molar value.
The entries below are paired with their reported pKi.

The following molecules have reported results that may help.
GIVEN_SMILES | pKi
CCN1CCC[C@@H]1CNC(=O)c1cc(-c2cccc(CN3O[C@@H](CN)[C@@H]([C@H](C)O)[C@H]3C(=O)N[C@H]3C[C@H]4C[C@@H]([C@@H]3C)C4(C)C)c2OC)cc(N(C)C)c1 | 5.30 to 6.00
CNC(=O)O[C@@H](C)[C@@H]1[C@H](CN)ON(Cc2cccc(-c3cc(C(=O)NC)cc(N(C)C)c3)c2OC)[C@@H]1C(=O)N[C@H]1C[C@H]2C[C@@H]([C@@H]1C)C2(C)C | < 5.00
CNC(=O)c1cc(-c2cccc(CN3O[C@@H](CN)[C@@H]([C@H](C)OC(=O)NCCc4ccccc4)[C@H]3C(=O)N[C@H]3C[C@H]4C[C@@H]([C@@H]3C)C4(C)C)c2OC)cc(N(C)C)c1 | < 5.00
COc1c(CN2O[C@@H](CO)[C@@H]([C@H](C)O)[C@H]2C(=O)N[C@H]2C[C@H]3C[C@@H]([C@@H]2C)C3(C)C)cccc1-c1cc(C(=O)N[C@H](CN(C)C)CC(C)(C)C)cc(N(C)C)c1 | > 6.00

The record that follows has no pKi shown yet.
Report pKi for CCN1CCC[C@@H]1CNC(=O)c1cc(-c2cccc(CN3O[C@@H](CO)[C@@H]([C@H](C)O)[C@H]3C(=O)N[C@H]3C[C@H]4C[C@@H]([C@@H]3C)C4(C)C)c2OC)cc(N(C)C)c1 tested on Bcl-xL (Homo sapiens).
> 6.00
